Values were extracted from paper PMC3765993.

Assay: Unbound (free) plasma fraction, dog
endpoint: fraction unbound
Please give only the number in your answer, with no unit.

**Query** Name the recorded fraction unbound of the item Cc1ccc(-n2nccn2)c(C(=O)N2CCN(c3nc4cc(Cl)ccc4o3)CC[C@H]2C)c1 in your answer.
**Result** 0.01

====

Test: in vivo
Conditions: rhesus monkey, po, 10 mg/kg
endpoint: Cmax (nM)
A number alone suffices; assume nM.

**Query** Input CN1CCN(C(=O)O[C@H]2c3nccnc3C(=O)N2c2ccc(Cl)cn2)CC1 , output reported Cmax.
**Result** 1680

====

Target: Orexin 2 receptor (Homo sapiens)
Sequence (O43614 1-444): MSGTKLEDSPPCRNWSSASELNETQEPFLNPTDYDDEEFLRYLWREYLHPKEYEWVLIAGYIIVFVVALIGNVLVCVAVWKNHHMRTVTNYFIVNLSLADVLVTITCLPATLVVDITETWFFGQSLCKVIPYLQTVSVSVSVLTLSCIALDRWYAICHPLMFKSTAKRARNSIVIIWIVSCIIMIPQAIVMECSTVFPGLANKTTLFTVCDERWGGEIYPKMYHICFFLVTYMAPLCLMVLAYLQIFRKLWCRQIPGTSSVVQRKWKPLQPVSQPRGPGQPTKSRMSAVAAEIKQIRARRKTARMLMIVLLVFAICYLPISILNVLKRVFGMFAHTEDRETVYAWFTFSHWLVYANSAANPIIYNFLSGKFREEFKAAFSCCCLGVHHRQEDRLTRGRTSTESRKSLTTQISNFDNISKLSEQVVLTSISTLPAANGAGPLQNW
Assay: Orexin 2 receptor binding kinetics
Conditions: almorexant applied 3-fold above its Kd (value an underestimate)
endpoint: T1/2 ON (binding half-life) (min)
# number only, unit min dropped from output

**Query** Output reported T1/2 ON (binding half-life) of the molecule Cc1nc(C(=O)N2CCCC[C@H]2CNC(=O)c2cccc3occc23)c(-c2ccc(F)cc2)s1 on Orexin 2 receptor (Homo sapiens).
**Result** 37.0

**Query** Quote Orexin 2 receptor (Homo sapiens) T1/2 ON (binding half-life) for entry Cc1ccc(-c2ncccn2)c(C(=O)N2C[C@H](COc3ccc(F)cn3)CC[C@H]2C)c1 .
**Result** 62.9

**Query** Answer briefly: T1/2 ON (binding half-life) recorded on Orexin 2 receptor (Homo sapiens) for Cc1ccc(-n2nccn2)c(C(=O)N2CCN(c3nc4cc(Cl)ccc4o3)CC[C@H]2C)c1
**Result** 80.1

====

Biological target: UniProtKB O43614
Experiment: Orexin 2 receptor binding kinetics
Item-by-item account of T1/2 OFF (half-life off-rates)
Kindly answer with a numeric value in h, unit omitted.

| compound_smiles | T1/2 OFF (half-life off-rates) [h] |
| --- | --- |
| Cc1ccc(-n2nccn2)c(C(=O)N2CCN(c3nc4cc(Cl)ccc4o3)CC[C@H]2C)c1 | 1.49 |
| Cc1ccc(-c2ncccn2)c(C(=O)N2C[C@H](COc3ccc(F)cn3)CC[C@H]2C)c1 | 1.97 |
| Cc1nc(C(=O)N2CCCC[C@H]2CNC(=O)c2cccc3occc23)c(-c2ccc(F)cc2)s1 | 0.95 |

Then this compound:
**Query** Report measured T1/2 OFF (half-life off-rates); entry is CNC(=O)[C@@H](c1ccccc1)N1CCc2cc(OC)c(OC)cc2[C@@H]1CCc1ccc(C(F)(F)F)cc1
**Result** 4.47

====

Assay: Suvorexant plasma levels in humans (Phase 1)
Conditions: human, in vivo
endpoint: half-life

**Query** Return half-life (reported value) for this compound: Cc1ccc(-n2nccn2)c(C(=O)N2CCN(c3nc4cc(Cl)ccc4o3)CC[C@H]2C)c1 [Suvorexant]
**Result** > 8 h

====

Assay: in vivo
Conditions: rhesus monkey, po, 10 mg/kg
endpoint: concentration at 17 h (nM)
Please respond with the number in nM and leave the unit unwritten.

**Query** Tell me measured concentration at 17 h for CN1CCN(C(=O)O[C@H]2c3nccnc3C(=O)N2c2ccc(Cl)cn2)CC1 [Eszopiclone] please.
**Result** 535

====

Assay: Unbound (free) plasma fraction, rat
endpoint: fraction unbound

**Query** Quote fraction unbound reported for Cc1ccc(-n2nccn2)c(C(=O)N2CCN(c3nc4cc(Cl)ccc4o3)CC[C@H]2C)c1 [Suvorexant] please.
**Result** 0.014
